Experiment: Pharmacokinetics after single po and iv administration
Conditions: mouse, feces, po, 20 mg/kg
measuredMetric: concentration at 24 h (ng/g)
Your answer is read as ng/g, so omit the unit and give the number.

Return reported concentration at 24 h. Input molecule: Oc1ccc(-c2nc(-c3ccc(OC4CCCC4)cc3)no2)cc1 [Compound 2] 43000

* * *

Experiment: Pharmacokinetics after single po and iv administration
Settings: mouse, plasma, iv, 20 mg/kg
measuredMetric: clearance
# output: number + unit

Output measured clearance for this item: `Oc1ccc(-c2nc(-c3ccc(OC4CCCC4)cc3)no2)cc1` 17.4 mL/min/kg

* * *

Test system: C. difficile
Assay: MIC against C. difficile (strain not named; 14 strains overall)
Assay type: cell-based, Clostridium difficile
Settings: strain not named
measuredMetric: C. difficile MIC (µg/mL)
Give the quantity in µg/mL, number only.

Please supply the value of reported C. difficile MIC for the item Oc1ccc(-c2nc(-c3ccc(OC4CCC=C4Br)cc3)no2)cc1 (stereo not drawn) 2

Fill in reported C. difficile MIC for this entry: `Oc1ccc(-c2nc(-c3ccc(OC(F)(F)F)cc3)no2)cc1` 4

Tell me C. difficile MIC reported for Oc1ccc(-c2nc(-c3ccc(OC4CCCC=C4Br)cc3)no2)cc1 (stereo not drawn) 2

Note down C. difficile MIC recorded for `NCc1ccc(-c2nc(-c3ccc(Oc4ccc(C(F)(F)F)cc4)cc3)no2)cc1` 4

Tell me measured C. difficile MIC for `Oc1ccc(-c2nc(-c3ccc(OC4CC4)cc3)no2)cc1` please. 8

Read the entry `Oc1ccc(-c2nc(-c3ccc(OC4CCCC4)cc3)no2)cc1` and write its reported C. difficile MIC. 2

* * *

Assay: Toxicity and fecal concentration after multiple oral doses
Details: female, C57B1/6, mouse, feces, po, 40 mg/kg/day
measuredMetric: concentration at 1 day
Don't forget the unit after the value.

Tell us which concentration at 1 day value is on record for Oc1ccc(-c2nc(-c3ccc(OC4CCCC4)cc3)no2)cc1 [Compound 2] 9800 ng/g

* * *

Test: Toxicity and fecal concentration after multiple oral doses
Details: female, C57B1/6, mouse, feces, po, 40 mg/kg/day
measuredMetric: concentration at 3 day (ng/g)
The reply should be a number in ng/g, with the unit left off.

Write down concentration at 3 day measured for item Oc1ccc(-c2nc(-c3ccc(OC4CCCC4)cc3)no2)cc1 [Compound 2] 18100

* * *

Assay: Toxicity and fecal concentration after multiple oral doses
Conditions: female, C57B1/6, mouse, feces, po, 40 mg/kg/day
measuredMetric: concentration at 2 day (ng/g)
Give your result in ng/g as a bare value.

Assign concentration at 2 day to the following record: `Oc1ccc(-c2nc(-c3ccc(OC4CCCC4)cc3)no2)cc1` 15000

* * *

Assay: Toxicity and fecal concentration after multiple oral doses
Settings: female, C57B1/6, mouse, feces, po, 40 mg/kg/day
measuredMetric: concentration at 4 day
Quote the value and follow it with the unit of measurement.

Tell me measured concentration at 4 day for Oc1ccc(-c2nc(-c3ccc(OC4CCCC4)cc3)no2)cc1 [Compound 2] please. 16900 ng/g

* * *

Experiment: Pharmacokinetics after single po and iv administration
Conditions: mouse, plasma, oral, 20 mg/kg, Absolute oral bioavailability F, mice; 20 mg/kg po vs iv
measuredMetric: bioavailability (%)
Number in %, nothing else.

Given the compound `Oc1ccc(-c2nc(-c3ccc(OC4CCCC4)cc3)no2)cc1` , write its reported bioavailability. 3.8
